Origin of values: patent US9944618B2

# assayed-target: human serotonin transporter (Homo sapiens (Human), UniProt P31645)
# Sequence (P31645 whole entry): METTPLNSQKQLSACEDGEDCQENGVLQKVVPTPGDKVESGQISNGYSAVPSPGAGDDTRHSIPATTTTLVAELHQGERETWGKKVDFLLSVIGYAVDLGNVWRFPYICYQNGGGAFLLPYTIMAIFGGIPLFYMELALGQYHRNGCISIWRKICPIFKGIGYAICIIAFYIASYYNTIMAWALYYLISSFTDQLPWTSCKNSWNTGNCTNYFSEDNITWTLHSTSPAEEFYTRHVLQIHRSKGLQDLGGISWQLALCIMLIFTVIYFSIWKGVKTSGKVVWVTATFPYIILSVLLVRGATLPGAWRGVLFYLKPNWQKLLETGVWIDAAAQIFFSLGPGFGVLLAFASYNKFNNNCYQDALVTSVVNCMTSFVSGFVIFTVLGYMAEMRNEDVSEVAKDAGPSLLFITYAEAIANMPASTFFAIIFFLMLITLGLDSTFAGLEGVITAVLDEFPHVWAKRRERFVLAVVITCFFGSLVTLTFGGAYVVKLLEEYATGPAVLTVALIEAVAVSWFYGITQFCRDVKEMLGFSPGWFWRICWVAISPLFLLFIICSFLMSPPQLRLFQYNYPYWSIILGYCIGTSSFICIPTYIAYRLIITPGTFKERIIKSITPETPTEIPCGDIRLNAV
# run-description: Human SERT (serotonin transporter) uptake assay
# Format: cell-based
# protocol-conditions: read-out: hSERT Ki
measure-name: Ki (nM)

Completed entries (count: 10):
>>> numeric_result("CNC[C@H](c1ccc(Cl)c(Cl)c1)[C@H](O)c1cccc(Br)c1 [Compound 76]")
222
>>> numeric_result("CNC[C@H](C[C@H](O)c1ccccc1)c1ccc2ccccc2c1 [Compound 93]")
1.1
>>> numeric_result("CNC[C@@H](c1ccc2ccccc2c1)[C@H](O)c1ccccn1 [Compound 99]")
43.2
>>> numeric_result("CNCC(CCc1ccccc1)[C@@H](O)c1ccccc1 (some centres unmarked) [Compound 147]")
800
>>> numeric_result("CNC[C@H](c1ccc2ccccc2c1)[C@H](O)c1ccc(Cl)nc1 [Compound 26]")
1.6
>>> numeric_result("CNC[C@H](c1ccc(Cl)c(Cl)c1)[C@@H](O)c1ccccc1 [Compound 70]")
142
>>> numeric_result("CNC[C@H](c1ccc2ccccc2c1)[C@H](O)c1ccncc1 [Compound 12]")
2.7
>>> numeric_result("O[C@@H](c1ccccc1)[C@@H](CNCC(F)(F)F)c1ccc2ccccc2c1 (single isomer, unassigned) [Compound 130]")
3370
>>> numeric_result("CNC[C@H](c1ccc2ccccc2c1)[C@@H](O)c1ccccc1F [Compound 60]")
10.7
>>> numeric_result("CN1CCO[C@H](c2ccccc2)[C@@H](c2ccc3ccccc3c2)C1 [Compound 77]")
3

(A) CNC[C@H](c1ccc(Cl)c(Cl)c1)[C@@H](O)c1cccc(NC(C)=O)c1 [Compound 94]
(B) CNC[C@@H](c1ccc(Cl)c(Cl)c1)[C@@H](O)c1cccc(N)c1 [Compound 119]
QUERY: // returns A or B , whichever has the lower Ki Which one? Tell me its label.
RESULT: A
(A: 367 nM, B: 1780 nM)

(1) CNC[C@H](c1ccc(Cl)c(Cl)c1)[C@H](O)c1ccncc1 (racemic) [Compound 155]
(2) CNC[C@@H](c1ccc(Cl)c(Cl)c1)[C@@H](O)c1ccccc1 [Compound 114]
QUERY: Could you kindly indicate whether 1 or 2 has the higher Ki value? Which one? Tell me its label.
RESULT: 2

(A) CN1CCO[C@@H](c2ccccc2)[C@@H](c2ccc3ccccc3c2)C1 [Compound 123]
(B) CNC[C@@H](c1ccc(Cl)c(Cl)c1)[C@@H](OC)c1cccc(NS(=O)(=O)C(F)(F)F)c1 [Compound 172]
(C) CNC[C@@H](c1ccc(Cl)c(Cl)c1)[C@@H](O)c1cccc(Br)c1 [Compound 162]
(D) CCOC(=O)CO[C@H](c1ccccc1)[C@H](CNC)c1ccc2ccccc2c1 [Compound 35]
(E) CNC[C@H](c1ccc2ccccc2c1)[C@H](O)c1ccc2c(c1)OCCO2 [Compound 143]
QUERY: Task for the reader: rank each entry by its Ki, from the minimum upward. Please, when replying, give the labels in the order that was requested.
RESULT: D, E, A, C, B

(A) CNC[C@@H](c1ccc2ccccc2c1)[C@@H](O)c1cncc(OC)c1 [Compound 122]
(B) CNC[C@H](c1ccc(Cl)c(Cl)c1)[C@H](O)c1ccccc1SC [Compound 156]
(C) CNC[C@@H](c1ccc(Cl)c(Cl)c1)[C@@H](O)c1cccc(NS(=O)(=O)C(F)(F)F)c1 [Compound 121]
QUERY: List these items ordered by Ki, big to small. Please, when replying, give the labels in the order that was requested.
RESULT: C, A, B
(C: 2850 nM, A: 124 nM, B: 22.4 nM)

(a) CCNC(=O)CO[C@H](c1ccccc1)[C@H](CNC)c1ccc2ccccc2c1 [Compound 6]
(b) CNC[C@H](c1ccc2ccccc2c1)[C@H](OC)c1ccc2c(c1)OCO2 (racemic) [Compound 136]
QUERY: Could you kindly indicate whether a or b has the higher Ki value? Which one? Tell me its label.
RESULT: b

(1) CNC[C@@H](c1ccc(Cl)c(Cl)c1)[C@H](O)c1cccc(NC(C)=O)c1 [Compound 98]
(2) CNCC(Cc1cccs1)c1ccc2ccccc2c1 (racemic) [Compound 40]
(3) CNC[C@H](c1ccc(Cl)c(Cl)c1)[C@@H](O)c1ccccc1SC [Compound 97]
QUERY: Task for the reader: rank each entry by its Ki, from the minimum upward. Please, when replying, give the labels in the order that was requested.
RESULT: 2, 3, 1
(2: 3.3 nM, 3: 78.4 nM, 1: 167 nM)

(I) CNC[C@@H](c1ccc(Cl)c(Cl)c1)[C@@H](O)c1cccc(N(C)C)c1 (single isomer, unassigned) [Compound 108]
(II) CNC[C@H](c1ccc2ccccc2c1)[C@H](O)c1ccccc1F [Compound 15]
(III) CNC[C@@H](Cc1ccc(C)s1)c1ccc2ccccc2c1 [Compound 44]
QUERY: List these items ordered by Ki, big to small. Please, when replying, give the labels in the order that was requested.
RESULT: I, III, II

(A) NCC(c1ccc2ccccc2c1)C(O)c1ccc(F)cc1F (centres unmarked) [Compound 107]
(B) CNC[C@H](c1ccc2ccccc2c1)[C@H](OCc1noc(C)n1)c1ccccc1 [Compound 22]
QUERY: // returns A or B , whichever has the lower Ki Which one? Tell me its label.
RESULT: B
